Biological target: NNMT (hNNMT) (Homo sapiens, UniProt P40261)
Construct: wild type, N-terminal His6 tag kept (no cleavage described), E. coli, construct 31248 Da
Sequence (P40261 whole entry): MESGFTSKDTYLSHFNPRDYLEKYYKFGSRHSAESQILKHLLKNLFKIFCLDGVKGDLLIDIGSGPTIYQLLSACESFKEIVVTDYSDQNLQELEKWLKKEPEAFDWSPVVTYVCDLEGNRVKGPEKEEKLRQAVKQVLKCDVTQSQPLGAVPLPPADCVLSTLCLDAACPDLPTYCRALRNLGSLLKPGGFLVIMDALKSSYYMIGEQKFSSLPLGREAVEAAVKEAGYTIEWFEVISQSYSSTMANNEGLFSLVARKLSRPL
Set-up: Intact protein LC/MS covalent labelling, fragments in pools of five, 200 uM each, 4 °C
Conditions: 24 h, 4 °C, pool of five; 200 µM; covalent
quantity.measured: NNMT

Ask: // Input: C=CC(=O)Nc1cc(F)ccc1C . Output its NNMT only.
Result: 0

Ask: // Input: O=C(CCl)Nc1cc2c(cc1Cl)C(=O)c1ccccc1C2=O . Output its NNMT only.
Result: 0

Ask: // Input: N#Cc1oc2ccccc2c1NC(=O)CCl . Output its NNMT only.
Result: 0.34

Ask: // Input: O=C(CCl)Nc1cc([N+](=O)[O-])ccc1Cl . Output its NNMT only.
Result: 0.51

Ask: // Input: O=C(CCl)Nc1nnc(CC(F)(F)F)o1 . Output its NNMT only.
Result: 0.24

Ask: // Input: N#CC1(NC(=O)CCl)CCCC1 . Output its NNMT only.
Result: 0

====

Provide the recorded NUDT7 for the entries that follow.
Target: NUDT7 (Homo sapiens)
Construct: residues 14-235, E. coli, pNIC28-Bsa4, N-terminal His6 tag removed by TEV, construct 26672 Da
Sequence (P0C024 14-235): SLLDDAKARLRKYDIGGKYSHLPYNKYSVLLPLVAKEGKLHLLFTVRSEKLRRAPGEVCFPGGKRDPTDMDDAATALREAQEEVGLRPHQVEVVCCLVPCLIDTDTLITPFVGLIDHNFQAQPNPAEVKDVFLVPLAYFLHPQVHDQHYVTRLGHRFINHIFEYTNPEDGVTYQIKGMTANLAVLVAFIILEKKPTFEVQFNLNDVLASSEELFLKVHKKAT
Set-up: Intact protein LC/MS covalent labelling, fragments in pools of five, 200 uM each, 4 °C
Conditions: 24 h, 4 °C, pool of five; 200 µM; covalent
Experimental: Incubations were performed at 200 μM for each compound and 2 μM of protein (10 μM for BSA) for 24 h at 4 °C with moderate shaking. […] Following incubation, we used intact protein [compound left out] chromatography/mass spectrometry (LC/MS) to identify the fragments and quantify their labeling (Figure 3A). […]
Respond with the number and no other words.

Ask: // Input: O=C(CCl)Nc1ccc(Cl)c(Cl)c1 [PCM-0102112] . Output its NUDT7 only.
Result: 0.18

Ask: // Input: C=CC(=O)N1CCC(c2noc(C3CC3)n2)CC1 [PCM-0102810] . Output its NUDT7 only.
Result: 0.06

Ask: // Input: CC(C)c1ccc(NC(=O)CCl)cc1 [PCM-0102532] . Output its NUDT7 only.
Result: 0.18

Ask: // Input: CC(c1nc2ccccc2s1)N(C)C(=O)CCl (stereo not shown) [PCM-0102793] . Output its NUDT7 only.
Result: 0

Ask: // Input: O=C(CCl)Nc1ccc2c(c1)NC(=O)CO2 [PCM-0102890] . Output its NUDT7 only.
Result: 0.08

Ask: // Input: O=C(CCl)Nc1ccc(Cl)c([N+](=O)[O-])c1 [PCM-0102316] . Output its NUDT7 only.
Result: 0.28

Ask: // Input: COc1cc2c(cc1OC)CN(C(=O)CCl)CC2 [PCM-0102317] . Output its NUDT7 only.
Result: 0.1

Ask: // Input: O=C(CCl)Nc1ccc([N+](=O)[O-])cc1C(F)(F)F [PCM-0102406] . Output its NUDT7 only.
Result: 0

Ask: // Input: O=C(CCl)NC(=O)Nc1ccc2c(c1)OCCO2 [PCM-0102614] . Output its NUDT7 only.
Result: 0.23

Ask: // Input: C=CC(=O)Nc1ccc(C)c(F)c1 [PCM-0102878] . Output its NUDT7 only.
Result: 0

Ask: // Input: O=C(CCl)N1CCN(C(=O)c2ccco2)CC1 [PCM-0102248] . Output its NUDT7 only.
Result: 0.09

Ask: // Input: Cl.O=C(CCl)N1CCN(Cc2ccc(Br)s2)CC1 [PCM-0102169] . Output its NUDT7 only.
Result: 0

Ask: // Input: O=C(CCl)NC(=O)NCC(F)(F)F [PCM-0103037] . Output its NUDT7 only.
Result: 0

Ask: // Input: CC(=O)N1CCc2cc(NC(=O)CCl)ccc21 [PCM-0102129] . Output its NUDT7 only.
Result: 0.07

Ask: // Input: COC(=O)c1sccc1NC(=O)CCl [PCM-0102367] . Output its NUDT7 only.
Result: 0.12

Ask: // Input: Cc1cccc(NC(=O)CCl)c1 [PCM-0102116] . Output its NUDT7 only.
Result: 0

Ask: // Input: O=C(CCl)Nc1nc2ccccc2s1 [PCM-0102698] . Output its NUDT7 only.
Result: 0.83

Ask: // Input: O=C(CCl)Nc1ccc(-c2nnc3n2CCCCC3)cc1 [PCM-0102101] . Output its NUDT7 only.
Result: 0

Ask: // Input: COC(=O)c1ccc(C)c(NC(=O)CCl)c1 [PCM-0103027] . Output its NUDT7 only.
Result: 0.05

Ask: // Input: Cl.O=C(CCl)N1CCN(Cc2ccc(Cl)s2)CC1 [PCM-0102277] . Output its NUDT7 only.
Result: 0

Ask: // Input: CN(CC1COc2ccccc2O1)C(=O)CCl (stereo not shown) [PCM-0102756] . Output its NUDT7 only.
Result: 0.16

Ask: // Input: C=CC(=O)N1CCCN(S(=O)(=O)c2cccc3cnccc23)CC1 [PCM-0102491] . Output its NUDT7 only.
Result: 0
